Listing of entries alongside the reported pIC50.
tested-system: human VPS34 (Homo sapiens (Human), UniProt Q8NEB9)
Sequence (Q8NEB9 whole entry): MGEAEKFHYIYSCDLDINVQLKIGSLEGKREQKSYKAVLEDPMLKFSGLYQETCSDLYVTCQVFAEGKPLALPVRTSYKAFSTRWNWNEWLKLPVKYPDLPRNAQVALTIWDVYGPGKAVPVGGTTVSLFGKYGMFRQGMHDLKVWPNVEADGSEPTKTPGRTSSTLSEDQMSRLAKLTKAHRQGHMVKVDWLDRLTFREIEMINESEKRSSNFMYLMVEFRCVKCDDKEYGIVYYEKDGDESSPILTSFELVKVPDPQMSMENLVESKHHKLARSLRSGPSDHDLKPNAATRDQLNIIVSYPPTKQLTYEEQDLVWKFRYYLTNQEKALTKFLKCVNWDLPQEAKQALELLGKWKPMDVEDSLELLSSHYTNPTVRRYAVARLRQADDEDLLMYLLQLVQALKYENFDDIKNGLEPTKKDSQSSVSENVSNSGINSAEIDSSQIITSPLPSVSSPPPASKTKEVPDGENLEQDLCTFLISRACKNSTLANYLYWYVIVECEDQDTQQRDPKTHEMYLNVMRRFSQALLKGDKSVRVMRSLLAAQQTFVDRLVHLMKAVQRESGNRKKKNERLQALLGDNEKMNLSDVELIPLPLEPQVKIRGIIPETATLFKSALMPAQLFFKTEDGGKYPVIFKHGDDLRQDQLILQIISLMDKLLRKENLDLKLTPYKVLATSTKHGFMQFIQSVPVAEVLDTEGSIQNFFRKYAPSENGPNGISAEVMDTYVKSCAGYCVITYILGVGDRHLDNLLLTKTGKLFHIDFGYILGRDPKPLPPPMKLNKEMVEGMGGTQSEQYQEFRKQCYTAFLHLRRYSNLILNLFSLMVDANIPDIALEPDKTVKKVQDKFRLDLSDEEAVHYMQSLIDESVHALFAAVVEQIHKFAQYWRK
assay-method-text: Human VPS34 enzyme assay (Adapta TR-FRET ADP detection)
Assay type: biochemical
assay-conditions: IC50 range class
pIC50: −log10 of the molar value.

Known results for compounds:
# compound, pIC50
rows = [
    ("Cc1nc(Nc2cc(-c3cnc(C)c(NS(=O)(=O)c4ccc(F)cc4F)c3)ccn2)ccc1C#N", "> 8.00"),
    ("CC(=O)Nc1cc(-c2cnc(N)c(C(=O)NC(=N)N)c2)ccn1", "< 7.00"),
    ("CC(=O)Nc1cc(-c2cnc(C)c(NS(=O)(=O)c3ccc(F)cc3F)c2)c(F)cn1", "> 8.00"),
    ("CC(=O)Nc1cc(-c2cnc(C)c(NS(=O)(=O)N(C)C)c2C)ccn1", "7.30 to 8.00"),
]

Switching to the query record.
Please tell me: pIC50 of CC(=O)Nc1cc(-c2cncc(S(=O)(=O)NC3C4CC5CC(C4)CC3C5)c2)ccn1 (centres unmarked) , system human VPS34 (Homo sapiens (Human), UniProt Q8NEB9)?
7.30 to 8.00

----------
tested-system: human VPS34 (Homo sapiens (Human), UniProt Q8NEB9)
assay-method-text: Human VPS34 enzyme assay (Adapta TR-FRET ADP detection)
Type: biochemical
assay-conditions: IC50 range class
Listing of entries alongside the reported IC50.

Known results for compounds:
# compound, IC50
data = [
    ("CC(=O)Nc1cc(-c2cncc(S(=O)(=O)NC(C)(C)C)c2)ccn1 [Compound I-443]", "10 to 50 nM"),
    ("CCc1c(-c2ccnc(Nc3ccnc(C)n3)c2)cnc(Cl)c1NS(=O)(=O)c1ccc(F)cc1F [Compound I-259]", "< 10 nM"),
    ("CC(=O)Nc1cc(-c2cnc3ccn(S(=O)(=O)c4ccccc4)c3c2)ccn1 [Compound I-23]", "< 10 nM"),
]

Requested field: IC50. Item: CC(=O)Nc1cc(-c2cnc(N)c(S(=O)(=O)N3CCOCC3)c2)ccn1 [Compound I-24]
< 10 nM

Requested field: IC50. Item: CC(=O)Nc1cc(-c2cncc(N(C)S(=O)(=O)N(C)C)c2)ccn1 [Compound I-458]
10 to 50 nM

----------
Listing of entries alongside the reported pIC50.
tested-system: human VPS34 (Homo sapiens (Human), UniProt Q8NEB9)
assay-method-text: Human VPS34 enzyme assay (Adapta TR-FRET ADP detection)
Type: biochemical
assay-conditions: IC50 range class
pIC50: −log10 of the molar value.

Known results for molecules:
# molecule, pIC50
data = [
    ("CC(=O)Nc1cc(-c2cnc3[nH]cc(S(=O)(=O)c4ccccc4)c3c2)ccn1", "7.30 to 8.00"),
    ("CC(=O)Nc1cc(-c2cnc(C)c(NS(=O)(=O)N(C)C)c2)ccn1", "> 8.00"),
    ("Cc1nccc(Nc2cc(-c3cnc(C)c(OCCO)c3)ccn2)n1", "7.30 to 8.00"),
    ("Cc1c(-c2ccnc(Nc3ccnc(-c4ccccc4)n3)c2)cnc(Cl)c1NS(=O)(=O)c1ccc(F)cc1F", "> 8.00"),
]

Switching to the query record.
Requested field: pIC50. Item: Cc1ncc(-c2ccnc(NC(=O)C3CC3(F)F)c2)cc1NS(=O)(=O)c1ccc(F)cc1F (single isomer, unassigned) [Compound I-267a]
7.30 to 8.00
